B1: TMEM120A (parent)
chain: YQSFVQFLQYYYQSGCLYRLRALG

Variants of: B1
Experimental Details: protein stability index of a GFP-peptide fusion (GPS, HEK-293T) (PSI 1-6); higher = more stable;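 note: lentivirally expressed fusions sorted by FACS into six bins by GFP to DsRed ratio, PSI derived from sequencing read proportions per bin multiplied by bin number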
Assay Conditions: c terminus: a fixed tail appended
Respond with TRUE for protein stability index values of 2 and above, FALSE for values below.

> print(dat)
               sequence.code  classification
 1  YQSFVQFLQYYYQSGCLYRWRALG            TRUE
 2  YQSFVQFLQYYIQSGCLYRLRALG            TRUE
 3  YQSFVQFLQYYYQNGCLYRLRALG            TRUE
 4  YQSFVQSLQYYYQSGCLYRLRALG           FALSE
 5  YQSFVQFLQYYYQSGCLYRLRALF            TRUE
 6  YQSFVQFLQYYYQSGCLYRLRALT            TRUE
 7  YQSFVQFLFYYYQSGCLYRLRALG            TRUE
 8  YQSFVQFLQYYYQSGCLYRLNALG            TRUE
 9  YQSFRQFLQYYYQSGCLYRLRALG            TRUE
10  YQSFVQFLQYYYQSGCLYLLRALG           FALSE
11  YQSFVQFLQYYYQEGCLYRLRALG            TRUE
12  YQSFVQFYQYYYQSGCLYRLRALG            TRUE
13  YQSFVQFLQYYYQSGCLYRKRALG            TRUE
